Study System: rM3 (Rattus norvegicus, UniProt P08483)
Sequence (P08483 whole entry): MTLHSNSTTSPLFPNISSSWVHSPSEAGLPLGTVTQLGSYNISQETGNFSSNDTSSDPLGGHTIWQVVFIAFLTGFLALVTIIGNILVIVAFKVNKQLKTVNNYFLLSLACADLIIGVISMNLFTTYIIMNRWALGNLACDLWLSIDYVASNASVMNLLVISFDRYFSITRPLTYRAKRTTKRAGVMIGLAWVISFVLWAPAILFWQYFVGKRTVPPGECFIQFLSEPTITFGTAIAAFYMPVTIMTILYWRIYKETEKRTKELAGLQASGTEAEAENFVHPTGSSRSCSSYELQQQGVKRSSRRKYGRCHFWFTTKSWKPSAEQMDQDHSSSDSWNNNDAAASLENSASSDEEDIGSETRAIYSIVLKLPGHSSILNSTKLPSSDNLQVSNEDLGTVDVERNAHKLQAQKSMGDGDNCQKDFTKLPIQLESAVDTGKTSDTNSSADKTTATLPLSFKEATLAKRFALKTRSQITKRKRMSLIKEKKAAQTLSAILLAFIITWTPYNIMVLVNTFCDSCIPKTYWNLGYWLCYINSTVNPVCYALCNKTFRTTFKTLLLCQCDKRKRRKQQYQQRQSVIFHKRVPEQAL
Assay Protocol: rat M3 functional assay
Condition Summary: read-out: rM3 IC50, printed as rM1-rM4
pIC50: −log10 of the molar value.
Measure: pIC50

| Compound | Result |
| --- | --- |
| CC(=O)c1cccc(OCc2cc(C(=O)N(C)[C@@H](C)c3ccccn3)no2)c1 [(S)-16] | < 4.52 |

###

Study System: rM2 (Rattus norvegicus, UniProt P10980)
Sequence (P10980 whole entry): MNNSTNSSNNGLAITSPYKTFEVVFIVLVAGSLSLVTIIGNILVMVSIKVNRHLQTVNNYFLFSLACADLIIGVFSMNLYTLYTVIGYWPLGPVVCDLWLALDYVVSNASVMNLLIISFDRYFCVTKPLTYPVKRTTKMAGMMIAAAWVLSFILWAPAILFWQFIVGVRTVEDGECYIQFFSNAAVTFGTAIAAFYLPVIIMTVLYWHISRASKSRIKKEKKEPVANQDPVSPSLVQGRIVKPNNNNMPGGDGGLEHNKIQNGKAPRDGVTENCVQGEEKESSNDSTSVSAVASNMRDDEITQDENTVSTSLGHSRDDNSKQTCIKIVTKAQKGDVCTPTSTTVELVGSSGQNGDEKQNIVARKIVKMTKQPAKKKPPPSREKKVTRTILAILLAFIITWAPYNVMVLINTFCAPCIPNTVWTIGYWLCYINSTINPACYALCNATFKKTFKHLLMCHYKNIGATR
Assay Protocol: rat M2 functional assay
Condition Summary: read-out: rM2 IC50, printed as rM1-rM4
pIC50: −log10 of the molar value.
Measure: pIC50

| Compound | Study System | Result |
| --- | --- | --- |
| CC(=O)c1cccc(OCc2cc(C(=O)N(C)[C@@H](C)c3ccccn3)no2)c1 [(S)-16] | rM2 (Rattus norvegicus, UniProt P10980) | < 4.52 |

###

Study System: rM4 (Rattus norvegicus)
Sequence (P08485 whole entry): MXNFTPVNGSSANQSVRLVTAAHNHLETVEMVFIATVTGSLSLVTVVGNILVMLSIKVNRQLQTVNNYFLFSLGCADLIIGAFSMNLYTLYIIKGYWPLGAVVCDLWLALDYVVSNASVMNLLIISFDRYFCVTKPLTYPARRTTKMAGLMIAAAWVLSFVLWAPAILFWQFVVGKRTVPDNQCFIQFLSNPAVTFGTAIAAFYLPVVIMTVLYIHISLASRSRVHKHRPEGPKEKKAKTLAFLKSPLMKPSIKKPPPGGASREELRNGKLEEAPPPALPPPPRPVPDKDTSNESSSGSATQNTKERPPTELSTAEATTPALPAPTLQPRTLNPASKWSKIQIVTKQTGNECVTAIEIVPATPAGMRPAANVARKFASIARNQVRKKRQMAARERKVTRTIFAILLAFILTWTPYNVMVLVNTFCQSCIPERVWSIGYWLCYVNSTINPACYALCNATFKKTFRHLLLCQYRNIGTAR
Assay Protocol: rat M4 functional assay
Condition Summary: read-out: rM4 IC50, printed as rM1-rM4

| Compound | IC50 |
| --- | --- |
| CC(=O)c1cccc(OCc2cc(C(=O)N(C)[C@@H](C)c3ccccn3)no2)c1 [(S)-16] | > 30 µM |
